B1: Segment polarity protein dishevelled homolog DVL-3, residues 2 to 81; numbered along this chain, Q92997 (parent)
chain: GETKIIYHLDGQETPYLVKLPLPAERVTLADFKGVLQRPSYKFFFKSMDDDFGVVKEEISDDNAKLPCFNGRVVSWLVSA

# Variants of: B1
# method notes: abundance fitness (aPCA) (normalised: wild type 0, dead -1); higher = more abundant; growth selection in yeast, the domain comes from the species named
# stated conditions: Homo sapiens
Each entry below lists one item and its recorded abundance fitness value.
Respond using a number only.

Worked set:
## Input Give abundance fitness for L36R
## Output -0.528

## Input Give abundance fitness for V55L
## Output -0.21

## Input Give abundance fitness for A64D
## Output -0.342

## Input Give abundance fitness for Q37G
## Output 0.048

## Input Give abundance fitness for G53R
## Output 0.382

## Input Give abundance fitness for P67Q
## Output -0.676

## Input Give abundance fitness for E58Y
## Output -0.801

## Input Give abundance fitness for D31V
## Output -0.448

---
## Input Give abundance fitness for S60P
## Output -0.922

## Input Give abundance fitness for S75K
## Output -0.967

## Input Give abundance fitness for W76T
## Output -0.579

## Input Give abundance fitness for V54Q
## Output -0.241

## Input Give abundance fitness for L77N
## Output -0.751

## Input Give abundance fitness for P21H
## Output -0.196

## Input Give abundance fitness for F52H
## Output 0.32

## Input Give abundance fitness for M48S
## Output 0.283

## Input Give abundance fitness for K19W
## Output -0.357
